- System: SK-MEL-5
- method.notes: Growth inhibition of human SK-MEL-5 cells assessed as cell growth at 10^-5 M after 48 hrs by sulforhodamine B assay relative to control
- Type: functional
- settings: SK-MEL-5, 48 h, read-out: Activity
Would you please tag the item satisfied when its growth at 10 µM is 90% or above, and not satisfied when it is below?

1) CN1CCN(C(=O)Cn2c(-c3ccc(Cl)cc3)csc2=N)CC1; satisfied
2) Cc1ccc(-c2csc(=N)n2CC(=O)N2CCOCC2)cc1; satisfied
3) N=c1scc(-c2ccccc2)n1CC(=O)N1CCOCC1; satisfied
4) Cc1ccc(-c2csc(=N)n2CC(=O)N2CCN(C)CC2)cc1; not satisfied
5) N=c1scc(-c2ccccc2)n1CC(=O)N1CCN(c2ccccc2)CC1; satisfied
6) N=c1scc(-c2ccc(Cl)cc2)n1CC(=O)N1CCOCC1; satisfied
7) CC(=O)N1CCN(C(=O)Cn2c(-c3ccc(Cl)cc3)csc2=N)CC1; not satisfied

----------
# reported growth at 10 µM; entries follow
- System: UO-31
- method.notes: Growth inhibition of human UO31 cells assessed as cell growth at 10^-5 M after 48 hrs by sulforhodamine B assay relative to control
- Assay type: functional
- settings: UO-31, 48 h, read-out: Activity
value.type: growth at 10 µM (%)

1) N=c1scc(-c2ccc(Cl)cc2)n1CC(=O)N1CCOCC1; 86.1
2) Cc1ccc(-c2csc(=N)n2CC(=O)N2CCOCC2)cc1; 95.3
3) CC(=O)N1CCN(C(=O)Cn2c(-c3ccc(Cl)cc3)csc2=N)CC1; 89.1
4) N=c1scc(-c2ccccc2)n1CC(=O)N1CCOCC1; 58
5) CN1CCN(C(=O)Cn2c(-c3ccccc3)csc2=N)CC1; 78.8
6) CC(=O)N1CCN(C(=O)Cn2c(-c3ccccc3)csc2=N)CC1; 60.4
7) N=c1scc(-c2ccccc2)n1CC(=O)N1CCN(c2ccccc2)CC1; 58
8) N=c1scc(-c2ccc(Cl)cc2)n1CC(=O)N1CCN(c2ccccc2)CC1; 91
9) CC(=O)N1CCN(C(=O)Cn2c(-c3ccc(C)cc3)csc2=N)CC1; 83.1
10) CN1CCN(C(=O)Cn2c(-c3ccc(Cl)cc3)csc2=N)CC1; 89.2
11) Cc1ccc(-c2csc(=N)n2CC(=O)N2CCN(C)CC2)cc1; 83.1
12) Cc1ccc(-c2csc(=N)n2CC(=O)N2CCN(c3ccccc3)CC2)cc1; 78.8

----------
- Test system: SNB-19
- method.notes: Growth inhibition of human SNB19 cells assessed as cell growth at 10^-5 M after 48 hrs by sulforhodamine B assay relative to control
- Type: functional
- settings: SNB-19, 48 h, read-out: Activity
value.type: growth at 10 µM (%)

1. N=c1scc(-c2ccccc2)n1CC(=O)N1CCOCC1; 98.3
2. N=c1scc(-c2ccc(Cl)cc2)n1CC(=O)N1CCOCC1; 91.2
3. Cc1ccc(-c2csc(=N)n2CC(=O)N2CCN(C)CC2)cc1; 99.8
4. CN1CCN(C(=O)Cn2c(-c3ccccc3)csc2=N)CC1; 93.7
5. CC(=O)N1CCN(C(=O)Cn2c(-c3ccc(Cl)cc3)csc2=N)CC1; 84.2
6. CC(=O)N1CCN(C(=O)Cn2c(-c3ccc(C)cc3)csc2=N)CC1; 100
7. CN1CCN(C(=O)Cn2c(-c3ccc(Cl)cc3)csc2=N)CC1; 92.7
8. N=c1scc(-c2ccc(Cl)cc2)n1CC(=O)N1CCN(c2ccccc2)CC1; 100
9. Cc1ccc(-c2csc(=N)n2CC(=O)N2CCOCC2)cc1; 106
10. Cc1ccc(-c2csc(=N)n2CC(=O)N2CCN(c3ccccc3)CC2)cc1; 96.6
11. CC(=O)N1CCN(C(=O)Cn2c(-c3ccccc3)csc2=N)CC1; 103
12. N=c1scc(-c2ccccc2)n1CC(=O)N1CCN(c2ccccc2)CC1; 98.6

----------
- Tested on: SNB-75
- method.notes: Growth inhibition of human SNB75 cells assessed as cell growth at 10^-5 M after 48 hrs by sulforhodamine B assay relative to control
- Format: functional
- settings: SNB-75, 48 h, read-out: Activity
# reported growth at 10 µM; entries follow
value.type: growth at 10 µM

1) Cc1ccc(-c2csc(=N)n2CC(=O)N2CCN(C)CC2)cc1; 73.5%
2) CC(=O)N1CCN(C(=O)Cn2c(-c3ccccc3)csc2=N)CC1; 67.7%
3) Cc1ccc(-c2csc(=N)n2CC(=O)N2CCOCC2)cc1; 90.6%
4) N=c1scc(-c2ccc(Cl)cc2)n1CC(=O)N1CCOCC1; 75.3%
5) CN1CCN(C(=O)Cn2c(-c3ccc(Cl)cc3)csc2=N)CC1; 79.5%
6) N=c1scc(-c2ccccc2)n1CC(=O)N1CCN(c2ccccc2)CC1; 74.6%

----------
- System: UACC-62
- method.notes: Growth inhibition of human UACC62 cells assessed as cell growth at 10^-5 M after 48 hrs by sulforhodamine B assay relative to control
- Format: functional
- settings: UACC-62, 48 h, read-out: Activity
Would you please tag the item YES when its growth at 10 µM is 90% or above, and NO when it is below?

1) Cc1ccc(-c2csc(=N)n2CC(=O)N2CCOCC2)cc1; YES
2) Cc1ccc(-c2csc(=N)n2CC(=O)N2CCN(c3ccccc3)CC2)cc1; NO
3) Cc1ccc(-c2csc(=N)n2CC(=O)N2CCN(C)CC2)cc1; NO
4) N=c1scc(-c2ccccc2)n1CC(=O)N1CCN(c2ccccc2)CC1; YES
5) N=c1scc(-c2ccc(Cl)cc2)n1CC(=O)N1CCN(c2ccccc2)CC1; YES
6) CN1CCN(C(=O)Cn2c(-c3ccccc3)csc2=N)CC1; NO
7) N=c1scc(-c2ccc(Cl)cc2)n1CC(=O)N1CCOCC1; NO
8) CC(=O)N1CCN(C(=O)Cn2c(-c3ccc(C)cc3)csc2=N)CC1; NO
9) CC(=O)N1CCN(C(=O)Cn2c(-c3ccc(Cl)cc3)csc2=N)CC1; NO

----------
# reported growth at 10 µM; entries follow
- System: KM12
- method.notes: Growth inhibition of human KM12 cells assessed as cell growth at 10^-5 M after 48 hrs by sulforhodamine B assay relative to control
- Assay type: functional
- settings: KM12, 48 h, read-out: Activity
value.type: growth at 10 µM (%)

1. Cc1ccc(-c2csc(=N)n2CC(=O)N2CCN(c3ccccc3)CC2)cc1; 104
2. CN1CCN(C(=O)Cn2c(-c3ccccc3)csc2=N)CC1; 102
3. CC(=O)N1CCN(C(=O)Cn2c(-c3ccc(Cl)cc3)csc2=N)CC1; 95.2
4. CC(=O)N1CCN(C(=O)Cn2c(-c3ccc(C)cc3)csc2=N)CC1; 99.4
5. Cc1ccc(-c2csc(=N)n2CC(=O)N2CCOCC2)cc1; 110
6. N=c1scc(-c2ccc(Cl)cc2)n1CC(=O)N1CCOCC1; 106

----------
- Test system: KM12
- method.notes: Growth inhibition of human KM12 cells assessed as cell growth at 10^-5 M after 48 hrs by sulforhodamine B assay relative to control
- Type: functional
- settings: KM12, 48 h, read-out: Activity
value.type: growth at 10 µM (%)

1) Cc1ccc(-c2csc(=N)n2CC(=O)N2CCN(C)CC2)cc1; 104
2) CN1CCN(C(=O)Cn2c(-c3ccc(Cl)cc3)csc2=N)CC1; 98.7
3) N=c1scc(-c2ccc(Cl)cc2)n1CC(=O)N1CCN(c2ccccc2)CC1; 108
4) CC(=O)N1CCN(C(=O)Cn2c(-c3ccccc3)csc2=N)CC1; 102
5) N=c1scc(-c2ccccc2)n1CC(=O)N1CCN(c2ccccc2)CC1; 104
6) N=c1scc(-c2ccccc2)n1CC(=O)N1CCOCC1; 103

----------
- target.system: Leukotriene A-4 hydrolase (Homo sapiens, UniProt P09960)
- Sequence (P09960 whole entry): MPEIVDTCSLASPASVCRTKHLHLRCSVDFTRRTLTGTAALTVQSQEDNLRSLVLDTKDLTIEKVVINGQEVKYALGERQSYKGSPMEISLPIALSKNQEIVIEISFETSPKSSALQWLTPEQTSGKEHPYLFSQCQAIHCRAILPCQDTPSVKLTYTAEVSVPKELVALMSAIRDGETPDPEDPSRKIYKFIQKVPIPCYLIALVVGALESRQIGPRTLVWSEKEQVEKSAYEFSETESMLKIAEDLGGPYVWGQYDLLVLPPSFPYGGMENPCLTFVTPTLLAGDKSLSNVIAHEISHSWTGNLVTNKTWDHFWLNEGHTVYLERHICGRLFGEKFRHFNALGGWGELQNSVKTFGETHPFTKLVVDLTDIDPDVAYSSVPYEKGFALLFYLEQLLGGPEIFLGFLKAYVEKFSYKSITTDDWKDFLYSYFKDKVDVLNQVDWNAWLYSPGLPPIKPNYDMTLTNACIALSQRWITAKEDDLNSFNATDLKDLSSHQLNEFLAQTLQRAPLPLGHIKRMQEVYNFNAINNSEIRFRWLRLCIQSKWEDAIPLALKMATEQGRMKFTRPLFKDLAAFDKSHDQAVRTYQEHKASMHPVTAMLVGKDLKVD
- method.notes: Inhibition of human leukotriene A-4 hydrolase
Field 'label' (enum: 1.0 / 0.0). Set to 1.0 when Ki is strictly under 2000 nM; else 0.0.

1) CN1CCN(C(=O)Cn2c(-c3ccccc3)csc2=N)CC1; 1.0
2) N=c1scc(-c2ccccc2)n1CC(=O)N1CCN(c2ccccc2)CC1; 1.0
3) CN1CCN(C(=O)Cn2c(-c3ccc(Cl)cc3)csc2=N)CC1; 1.0
4) CC(=O)N1CCN(C(=O)Cn2c(-c3ccccc3)csc2=N)CC1; 0.0
5) N=c1scc(-c2ccccc2)n1CC(=O)N1CCOCC1; 0.0
6) N=c1scc(-c2ccc(Cl)cc2)n1CC(=O)N1CCN(c2ccccc2)CC1; 1.0
7) N=c1scc(-c2ccc(Cl)cc2)n1CC(=O)N1CCOCC1; 1.0
8) Cc1ccc(-c2csc(=N)n2CC(=O)N2CCN(c3ccccc3)CC2)cc1; 0.0
9) Cc1ccc(-c2csc(=N)n2CC(=O)N2CCN(C)CC2)cc1; 1.0
10) CC(=O)N1CCN(C(=O)Cn2c(-c3ccc(C)cc3)csc2=N)CC1; 1.0
11) CC(=O)N1CCN(C(=O)Cn2c(-c3ccc(Cl)cc3)csc2=N)CC1; 1.0
12) Cc1ccc(-c2csc(=N)n2CC(=O)N2CCOCC2)cc1; 0.0
